Cited source for all entries: the supplement of paper PMC10567573

B1: FAM189A2 (parent)
chain: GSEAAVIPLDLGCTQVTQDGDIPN

variants of: B1; experiment: protein stability index of a GFP-peptide fusion (GPS, HEK-293T) (PSI 1-6); higher = more stable; conditions: c terminus: a fixed tail appended;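 further: lentivirally expressed fusions sorted by FACS into six bins by GFP to DsRed ratio, PSI derived from sequencing read proportions per bin multiplied by bin number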
Kindly state protein stability index for each of the entries shown.

Incoming: Look up protein stability index for this variant: GSEAAVIPLDLGCTQVTQDGSIPN [D21S]
Outgoing: 4.97

Incoming: Next record, please: GSEAAVIPLDLGCTQVTQDGEIPN [D21E]
Outgoing: 5.03

Incoming: Next record, please: GSEAAVIPLDLQCTQVTQDGDIPN [G12Q]
Outgoing: 5.44

Incoming: Next record, please: GSEAAVIPLDLGCTQVTQWGDIPN [D19W]
Outgoing: 4.37

Incoming: Next record, please: GSEAAVIPLDLGCTQVTQDGDIHN [P23H]
Outgoing: 4.85

Incoming: Next record, please: GSEAAVIPLDLGCTQFTQDGDIPN [V16F]
Outgoing: 5.1

Incoming: Next record, please: GSEAAVIPNDLGCTQVTQDGDIPN [L9N]
Outgoing: 5.55

Incoming: Next record, please: GSEAAVIPLDLMCTQVTQDGDIPN [G12M]
Outgoing: 4.82

Incoming: Next record, please: GSEAAVIPLDLGCTQVTQDGDIDN [P23D]
Outgoing: 5.81

Incoming: Next record, please: GSEAAVIPLDMGCTQVTQDGDIPN [L11M]
Outgoing: 5.31

Incoming: Next record, please: GSEAAVIPLDLGCTQVTQDGDNPN [I22N]
Outgoing: 5.25
